# assayed-target: HLA-A*02:01 (Homo sapiens, UniProt P04439, D140Y/D185E/D98H/E176V/E277Q/G131W/G231S/I119V/I121R/I166T/I218V/L300P/L318F/N151K/N90K/P208A/P217A/Q86G/Q94H/R138H/R169H/T345S)
# procedure-details: MHC binding assay (UV-ligand exchange, ELISA of exchange yield)
# assay-setup: binding to HLA-A*02:01, UV-ligand exchange
# Description: Candidate peptides for T cell based therapies according to the present invention were further tested for their MHC binding capacity (affinity). The individual peptide-MHC complexes were produced by UV-ligand exchange, where a UV-sensitive peptide is cleaved upon UV-irradiation, and exchanged with the peptide of interest as analyzed. Only peptide candidates that can effectively bind and stabilize the peptide-receptive MHC molecules prevent dissociation of the MHC complexes. […]
reported-endpoint: Peptide exchange (MHC class I binding score, peptide exchange yield)

substance: 460 (AMLEKNYKL; listed as Homo sapiens) [compound 460]
obs-value: “++++” (≥75% = ++++)
--
substance: 235 (YLNDLHEVLL; listed as Homo sapiens) [compound 235]
obs-value: “++++” (≥75% = ++++)
--
substance: 3 (SLASKLTTL; listed as Homo sapiens) [compound 3]
obs-value: “++++” (≥75% = ++++)
--
substance: 568 (TLYDIAHTPGV; listed as Homo sapiens) [compound 568]
obs-value: “++++” (≥75% = ++++)
--
substance: 466 (VLIANLEKL; listed as Homo sapiens) [compound 466]
obs-value: “++++” (≥75% = ++++)

Challenge: Peptide exchange (MHC class I binding score, peptide exchange yield) for 378 (ALGYFVPYV; listed as Homo sapiens) [compound 378] ?
Response given: “+++” (≥50 = +++)

Challenge: Peptide exchange (MHC class I binding score, peptide exchange yield) for 101 (ILVGGGALATV; listed as Homo sapiens) [compound 101] ?
Response given: “+++” (≥50 = +++)

Challenge: Peptide exchange (MHC class I binding score, peptide exchange yield) for 122 (FLLAEDDIYL; listed as Homo sapiens) [compound 122] ?
Response given: “+++” (≥50 = +++)

Challenge: Peptide exchange (MHC class I binding score, peptide exchange yield) for 88 (FLLVGDLMAV; listed as Homo sapiens) [compound 88] ?
Response given: “+++” (≥50 = +++)

Challenge: Peptide exchange (MHC class I binding score, peptide exchange yield) for 396 (ALLPDLPAL; listed as Homo sapiens) [compound 396] ?
Response given: “+++” (≥50 = +++)

Challenge: Peptide exchange (MHC class I binding score, peptide exchange yield) for 72 (SLLELDGINL; listed as Homo sapiens) [compound 72] ?
Response given: “+++” (≥50 = +++)

###

# assayed-target: HLA-A*02:01 (Homo sapiens, UniProt P04439, D140Y/D185E/D98H/E176V/E277Q/G131W/G231S/I119V/I121R/I166T/I218V/L300P/L318F/N151K/N90K/P208A/P217A/Q86G/Q94H/R138H/R169H/T345S)
# procedure-details: MHC binding assay (UV-ligand exchange, ELISA of exchange yield)
# assay-setup: binding to HLA-A*02:01, UV-ligand exchange
reported-endpoint: Peptide exchange (MHC class I binding score, peptide exchange yield)

Use these answered entries as a reference point.
substance: 617 (ALMYESEKVGV; listed as Homo sapiens) [compound 617]
obs-value: “+++” (≥50 = +++)
//
substance: 596 (ALLDQTKTLAESAL; listed as Homo sapiens) [compound 596]
obs-value: “+++” (≥50 = +++)
//
substance: 377 (FLLDSSASV; listed as Homo sapiens) [compound 377]
obs-value: “++” (≥20% = ++)
//
substance: 475 (LLLNEEALAQI; listed as Homo sapiens) [compound 475]
obs-value: “+++” (≥50 = +++)
//
substance: 71 (GILARIASV; listed as Homo sapiens) [compound 71]
obs-value: “+++” (≥50 = +++)

Challenge: Peptide exchange (MHC class I binding score, peptide exchange yield) for 319 (SLEPQIQPV; listed as Homo sapiens) [compound 319] ?
Response given: “++” (≥20% = ++)

Challenge: Peptide exchange (MHC class I binding score, peptide exchange yield) for 270 (LLLDEEGTFSL; listed as Homo sapiens) [compound 270] ?
Response given: “++” (≥20% = ++)

Challenge: Peptide exchange (MHC class I binding score, peptide exchange yield) for 283 (ALYIGDGYVIHLA; listed as Homo sapiens) [compound 283] ?
Response given: “+++” (≥50 = +++)

Challenge: Peptide exchange (MHC class I binding score, peptide exchange yield) for 202 (ALLDQQGSRWTL; listed as Homo sapiens) [compound 202] ?
Response given: “+++” (≥50 = +++)
